# System: MDA-MB-435 (human breast cancer cells)
# assayText: MTT in vitro anti-tumor activity test, MDA-MB-435
# Type: cell-based
# conditionNotes: MTT assay, 72 h incubation, MDA-MB-435 cells
MDA-MB-435 IC50 listing for selected compounds.

COc1ccc2c(c1)C(=O)c1c-2c(=O)n(CCN2CCOCC2)c2ccccc12 ... >100 µg/mL

For record O=C1c2cc(Cl)ccc2-c2c1c1ccccc1n(CCN1CCCCC1)c2=O the listed MDA-MB-435 IC50 is >100 µg/mL

For record COc1cc2c3c(c(=O)n(CCN4CCOCC4)c2cc1OC)-c1ccc(Cl)cc1C3=O the listed MDA-MB-435 IC50 is >100 µg/mL

---

# System: HepG2 (human hepatoma cells)
# assayText: MTT in vitro anti-tumor activity test, HepG2
# Assay type: cell-based
# conditionNotes: HepG2, 100 μg/mL, MTT, 72 h
HepG2 100 μg/mL IC % listing for selected compounds.
Express the result in % but write the number alone.

For record COc1ccc2nc(OCCN3CCCC3)c3c(c2c1)C(=O)c1cc(Br)ccc1-3 [Compound 18] the listed HepG2 100 μg/mL IC % is 35.48

For record COc1ccc2nc(OCCn3ccnc3)c3c(c2c1)C(=O)c1cc(Br)ccc1-3 [Compound 19] the listed HepG2 100 μg/mL IC % is 37.50

For record CC[C@@]1(O)C(=O)OCc2c1cc1n(c2=O)Cc2cc3cc(O)ccc3nc2-1 [HCPT, 10-hydroxycamptothecin, reference compound] the listed HepG2 100 μg/mL IC % is 100

---

MDA-MB-435 IC50 listing for selected molecules.
# Tested on: MDA-MB-435 (human breast cancer cells)
# assayText: MTT in vitro anti-tumor activity test, MDA-MB-435
# Type: cell-based
# conditionNotes: MDA-MB-435 human breast cancer cells, MTT, 72 h
Express the result in µg/mL but write the number alone.

COc1ccc2nc(OCCN3CCCC3)c3c(c2c1)C(=O)c1cc(Br)ccc1-3 ... 24.86
COc1ccc2c(c1)-c1c(OCCN(C)C)nc3ccc(OC)cc3c1C2=O ... 4.98
O=C1c2cc(Cl)ccc2-c2c(OCCn3ccnc3)nc3ccccc3c21 ... 15.02
CN(C)CCOc1nc2ccccc2c2c1-c1ccc(Cl)cc1C2=O ... 4.91
COc1ccc2c(c1)C(=O)c1c-2c(OCCN2CCCC2)nc2cc(OC)c(OC)cc12 ... 1.85

For record COc1ccc2c(c1)C(=O)c1c-2c(OCCCN(C)C)nc2ccccc12 the listed MDA-MB-435 IC50 is 3.64

For record CCN(CC)CCOc1nc2cc(OC)c(OC)cc2c2c1-c1ccc(OC)cc1C2=O the listed MDA-MB-435 IC50 is 1.17

For record COc1ccc2c(c1)C(=O)c1c-2c(OCCN2CCCCC2)nc2cc(OC)c(OC)cc12 the listed MDA-MB-435 IC50 is 8.92

---

Colo205 IC50 listing for selected compounds.
# System: Colo205 (human colon cancer cells)
# assayText: MTT in vitro anti-tumor activity test, Colo205
# Format: cell-based
# conditionNotes: MTT assay, 72 h incubation, Colo205 cells
Express the result in µg/mL but write the number alone.

O=C1c2cc(Cl)ccc2-c2c1c1ccccc1n(CCN1CCCC1)c2=O ... 36.76

For record CN(C)CCCn1c(=O)c2c(c3ccccc31)C(=O)c1cc(Cl)ccc1-2 the listed Colo205 IC50 is 3.16

For record COc1cc2c3c(c(=O)n(CCCN(C)C)c2cc1OC)-c1ccc(Cl)cc1C3=O the listed Colo205 IC50 is 15.89

For record CN(C)CCn1c(=O)c2c(c3ccccc31)C(=O)c1cc(Cl)ccc1-2 the listed Colo205 IC50 is 3.89

For record COc1ccc2c(c1)C(=O)c1c-2c(=O)n(CCCN(C)C)c2ccccc12 the listed Colo205 IC50 is 6.82

For record COc1cc2c3c(c(=O)n(CCn4ccnc4)c2cc1OC)-c1ccc(Cl)cc1C3=O the listed Colo205 IC50 is 11.75

For record COc1ccc2c(c1)C(=O)c1c-2c(=O)n(CCN2CCOCC2)c2cc(OC)c(OC)cc12 the listed Colo205 IC50 is 16.76
